Values from patent US20240226106A1

Measured pEC50 of individual entries
- experimentalSystem: human activated kallikrein enzyme (Homo sapiens, UniProt P03952)
- Sequence (P03952 391-638 limits assumed): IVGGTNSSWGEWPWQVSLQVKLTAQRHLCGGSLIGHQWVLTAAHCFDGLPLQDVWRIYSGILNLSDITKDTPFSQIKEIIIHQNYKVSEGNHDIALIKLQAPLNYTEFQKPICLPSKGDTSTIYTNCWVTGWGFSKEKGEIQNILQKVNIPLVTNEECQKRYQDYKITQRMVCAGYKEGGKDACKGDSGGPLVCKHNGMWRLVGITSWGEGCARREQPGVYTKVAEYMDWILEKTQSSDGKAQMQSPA
- Sequence (P03952 20-390 partner limits assumed): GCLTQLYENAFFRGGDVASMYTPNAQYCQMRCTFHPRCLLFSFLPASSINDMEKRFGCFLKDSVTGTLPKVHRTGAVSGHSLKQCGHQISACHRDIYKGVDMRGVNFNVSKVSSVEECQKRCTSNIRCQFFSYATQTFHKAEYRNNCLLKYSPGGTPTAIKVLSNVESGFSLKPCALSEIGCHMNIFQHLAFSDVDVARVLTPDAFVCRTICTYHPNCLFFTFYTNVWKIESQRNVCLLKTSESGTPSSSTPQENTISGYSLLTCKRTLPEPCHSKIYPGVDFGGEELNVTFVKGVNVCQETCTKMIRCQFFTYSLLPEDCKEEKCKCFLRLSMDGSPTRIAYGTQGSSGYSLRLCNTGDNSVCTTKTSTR
- testMethodNotes: Inhibition of human activated plasma kallikrein, fluorogenic peptide substrate (PFR-AMC), 500 pM enzyme format
- experimentalConditions: 500 pM activated kallikrein, 30 min preincubation, 10 min reaction, room temperature, read-out: Primary Dose Response Assay: Average EC50
- Description: Compounds were evaluated for inhibition of the human activated kallikrein enzyme in two formats of an assay employing a fluorogenic peptide substrate. […] After initiation with substrate, reactions were incubated for 10 min at room temperature and fluorescence emission at 460 nm from 380 nm excitation measured with a microplate reader. […]
pEC50: −log10 of the molar value.
attributeMeasured: pEC50

[[record]]
molecule = "O=C(Nc1cc(NCc2cc3cc(C4CC4)cc(N4CCOC4=O)n3n2)ncn1)[C@H]1C[C@@H]1c1cc(Cl)ccn1 (racemic) [Example 56]"
attributemeasured = "pEC50"
result = "> 8.60"

[[record]]
molecule = "Cc1ccnc([C@@H]2C[C@H]2C(=O)Nc2cc(N3C[C@@H](O)C[C@@H]3c3cn4cc(C5CC5)cnc4n3)ncn2)c1 (single isomer, unassigned) [Example 74]"
attributemeasured = "pEC50"
result = "< 6.30"

[[record]]
molecule = "O=C(Nc1cc(C2(c3ccc(Cn4cc(Cl)ccc4=O)cc3)CC2)cnn1)[C@H]1C[C@@H]1c1cccc(Cl)c1 (racemic) [Example 20]"
attributemeasured = "pEC50"
result = "< 6.30"

